- TARGET_OF_ASSAY: T1, T4 (Tn-MUC1) (PAPGSTAPPAHGVT(α-GalNAc)SAPDTRPAPG-OH)
- T1 peptide: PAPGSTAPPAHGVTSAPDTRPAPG
- TEST_DESCRIPTION: glycopeptide array
Measured EC50 of individual entries
Reply with just the number (in µg/mL).

Some solved cases for reference:
110 (antibody, V domains shown) VH: QVQLVQSGAEMKKPGASVKVSCKASGYTFTNYYIHWVRQAPGQGLEWMGVINPYDGSTNYAQKFQGRVTLTRDTSTTTVYMELSSLRSEDTAVYYCARDYMIGYVVFDFWGQGTLVTVSS :: 0.127
182 (antibody, V domains shown) VH: QVQLVQSGAEVKKPGASVKVSCKASGYSFTYSYIQWVRLAPGRGLEWMGVINPYDGSTDYAQKFQGRVTLTRDTSTTTVYMELSSLTSEDTAVYYCARDFMIGYVVFDYWGQGTLVTVSS :: 0.093

Task item: Consider the binder 174 (antibody, V domains shown) VH: EVQLVESGAEVKKPGASVKVSCKASGYTFNRYYLHWVRQAPGQGLEWMGVINPYDGSTNYAQKFRGRITMTRDTSTNTVYMELSSLRSEDTAVYFCARDAMEGDSYFDKWGQGTLVTVSS and give its measured EC50.
Reply: 0.178

Task item: Consider the binder 186 (antibody, V domains shown) VH: QVQLVQSGAEVKKPGASVKVSCKASGYTFNRYYIHWVRQAPGQGLEWMGVINPYDGSTNYAQKFRGRITMTRDTSTNTVYMDLSSLRSEDTAVYFCARDAMEGDSYLDNWGRGTLVTVSS and give its measured EC50.
Reply: 0.118
